Recorded values, source patent US9359409B2.

Assign MIC in agar dilution to each entry below.
# System: S. cohnii
# Format: cell-based
Ends that are not written are not given here.
Numbers only, in µg/mL.

Worked cases, MIC in agar dilution given:
In [3]: df
Out[3]:
                                  substance  valueunit  value
0  ILRWPWWPWRRK-NH2 [Omiganan, ILRWPWWPWRRK, reference compound]      µg/mL     16
1  GLLKKWLKKWKEFKRIVGY-NH2 [peptide 2, GLLKKWLKKWKEFKRIVGY]      µg/mL     16
2  RIVQRIKKWLLKWKKLGY-NH2 [peptide 5, RIVQRIKKWLLKWKKLGY]      µg/mL      8
3  FGKEKKAWWRRRKWLK-NH2 [peptide 3, FGKEKKAWWRRRKWLK]      µg/mL     32

Continue with the substance presented below.
Here WPKWWKWKRRWGRKKAKKRRG-NH2 [peptide 1] was tested on S. cohnii, and its MIC in agar dilution came to 16

----------
# System: S. haemolyticus
# Method: Subsequently, an analysis of a panel of clinical isolates including strains with different resistance mechanisms against conventional antibiotics was carried out, all of which are of clinical relevance. […] In these tables the detected gene/s responsible for the resistance against antibiotics for each strain, are included. Antimicrobial activity was analyzed by means of the determination of the MIC (minimum inhibitory concentration) by the microdilution technique. […]
Ends that are not written are not given here.
measuredMetric: MIC (µg/mL)
Numbers only, in µg/mL.

>>> df
                                  substance  measuredmetric  valueunit  value
0  GLLKKWLKKWKEFKRIVGY-NH2 [peptide 2, GLLKKWLKKWKEFKRIVGY]             MIC      µg/mL      8
1  ILRWPWWPWRRK-NH2 [Omiganan, ILRWPWWPWRRK, reference compound]             MIC      µg/mL      4
2     WPKWWKWKRRWGRKKAKKRRG-NH2 [peptide 1]             MIC      µg/mL     16

Continue with the substance presented below.
Measured MIC, RIVQRIKKWLLKWKKLGY-NH2 [peptide 5, RIVQRIKKWLLKWKKLGY] : 8

----------
Assign MIC to each entry below.
# Test system: A. baumanii
# condition: A. baumanii M5282, resistance gene oxa-51
Ends that are not written are not given here.
Give bare numbers, in µg/mL.

Worked cases, MIC given:
                                  substance  measuredmetric  valueunit  value
0  GLLKKWLKKWKEFKRIVGY-NH2 [peptide 2, GLLKKWLKKWKEFKRIVGY]             MIC      µg/mL      8
1  ILRWPWWPWRRK-NH2 [Omiganan, ILRWPWWPWRRK, reference compound]             MIC      µg/mL     16
2  RIVQRIKKWLLKWKKLGY-NH2 [peptide 5, RIVQRIKKWLLKWKKLGY]             MIC      µg/mL      8

Continue with the substance presented below.
Measured MIC, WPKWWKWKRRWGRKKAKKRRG-NH2 [peptide 1] : 64
